PROCEDURE TEXT: small-molecule microarray binders of probe aShh, primary screen, biochemical, biotinylated probe, 635/667 nm fluorescence (AID 1114);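 also: probe is biotin-labelled aShh protein from a stem cell growth factor screen; measures binding of labelled protein to compounds printed on the slide; score merges feature fluorescence at 667 nm with signal-to-noise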
CONDITION CONTEXT: higher = more signal
OUTCOME MEASURE: composite z-score

INSERT INTO measurements (compound, observed_result) VALUES
  ('COC(=O)[C@H](C)NC(=O)CCC1CC(OC(=O)NCc2ccc3c(c2)OCO3)CC2(CCCC(COC(=O)NCCOc3ccccc3)O2)O1 (stereo not given in full)', -0.138),
  ('CC=CC1=C(CO)[C@H](O)[C@H]2O[C@H]2[C@H]1O', -0.304),
  ('O=C(CS)NCCCCCNC(=O)[C@H]1C[C@H]2C(=O)N3CCC[C@H]3C(=O)N2[C@H]1c1cccc(OCCO)c1', -0.138),
  ('Cc1cc2c(nc1C)CCCN2CC(O)CN1CCN(C)CC1 (stereo not given)', 0.116),
  ('CO[C@@H]1COC(=O)CCC[C@@H](C)[C@H](OC)COC(=O)[C@H](Cc2ccccc2)NC(=O)CC=C[C@H]1C', 0.194),
  ('CCN1C(=O)[C@H]2[C@H]3[C@H](O)[C@H](O)CC(=NOCc4ccccc4)[C@@H]3CC[C@H]2C1=O', -0.349),
  ('COC(=O)[C@@H]1CC[C@H](C)[C@@H](c2ccc(C)cc2)N1C(=O)c1ccc(C=NOC(C)CN2CCCCc3nc(C)c(C)cc32)cc1 (stereo not given in full)', 0.0893),
  ('COCCOC(=O)N1C(=O)[C@@]2(c3cc(C#CCNC(N)=O)ccc31)[C@H](c1ccc(O)cc1)N1[C@H](c3ccccc3)[C@H](c3ccccc3)OC(=O)[C@H]1[C@@H]2C(=O)N1CCCCCCC1', 0.108),
  ('CCN1C(=O)[C@H]2[C@H]3[C@H](O)C=CC(=O)[C@@H]3CC[C@H]2C1=O', -0.13),
  ('COc1ccc(O[C@H]2C=C[C@@H](c3ccccc3)O[C@@H]2COC(=O)CCC(C)=NO[C@H](C)c2cn([C@@H]3COC[C@H]3O)nn2)cc1', 0.0062),
  ('CC(=O)OC[C@H]1O[C@H](CCON=C[C@@H](C)[C@H](OCc2ccccc2)C(C)C)C=C[C@@H]1OC(C)=O', -0.214),
  ('O=C(NN=C1C[C@@H](O)[C@@H](O)[C@@H]2[C@@H]3C(=O)N(c4cccc(Oc5ccccc5)c4)C(=O)[C@@H]3CC[C@@H]12)OCc1ccccc1', -0.206),
  ('NCCCCCNC(=O)[C@@H]1C[C@@H]2C(=O)N3CCC[C@H]3C(=O)N2[C@@H]1c1cccc(OCCO)c1', 0.315),
  ('CC(C)NC(=O)[C@@]1(C)c2ccccc2C(=O)N(Cc2cc(F)cc(C(F)(F)F)c2)[C@H]1c1ccc(CO)cc1', -0.121),
  ('CO[C@H]1O[C@H](CO)[C@@H](OC(=O)Nc2ccc3c(c2)OCO3)[C@H](OC(=O)Nc2ccccc2-c2ccccc2)[C@@H]1OC(=O)Nc1ccccc1-c1ccccc1', 0.184);
